Source: ChEMBL document CHEMBL4765472

test system: Human immunodeficiency virus 1; test: Substrate activity at HIV1 reverse transcriptase assessed as incorporation of compound into growing DNA strand at 500 uM incubated for 1 hr using primer and template in presence of MgCl2 by gel based nucleotide incorporation assay
Activity calls are given as the source filed them. The calls are words filed in the database; no cut-off is given here.

# moleculeSmiles, systemName, Activity
records = [
    ("C[C@H](Cn1cnc2c(N)ncnc21)OCP(=O)(O)N[C@@H](CCC(=O)O)C(=O)O", "Human immunodeficiency virus 1", "26.8%"),
    ("Nc1ncnc2c1ncn2[C@H]1C[C@H](O)[C@@H](COP(=O)(O)O)O1", "Human immunodeficiency virus 1", "Active"),
    ("C[C@H](Cn1cnc2c(N)ncnc21)OCP(=O)(O)N[C@H](CC(=O)O)C(=O)O", "Human immunodeficiency virus 1", "Active"),
]

###

tested on: Human immunodeficiency virus 1; assay: Substrate activity at HIV1 reverse transcriptase assessed as incorporation of compound into growing DNA strand at 1 mM incubated for 1 hr using primer and template in presence of MnCl2 by gel based nucleotide incorporation assay
Calls of active or inactive are those of the source. The calls are words filed in the database; no cut-off is given here.
In this exercise, the only acceptable responses are y = active, n = inactive

# moleculeSmiles, assignedCategory
records = [
    ("C[C@H](Cn1cnc2c(N)ncnc21)OCP(=O)(O)N[C@@H](CC(=O)O)C(=O)O", "y"),
]

Q: Called result for `C[C@H](Cn1cnc2c(N)ncnc21)OCP(=O)(O)N[C@@H](Cc1c[nH]cn1)C(=O)O`
A: y

Q: Called result for `C[C@H](Cn1cnc2c(N)ncnc21)OCP(=O)(O)N[C@@H](Cc1ccccc1)C(=O)O`
A: y

Q: Called result for `C[C@H](Cn1cnc2c(N)ncnc21)OCP(=O)(O)N[C@@H](CCCNC(=N)N)C(=O)O`
A: n

###

assay: Inhibition of HIV1 reverse transcriptase assessed as reduction in dsDNA synthesis incubated for 1 hr by PicoGreen-based spectrophotometric assay; set-up: species or system Human immunodeficiency virus 1
observedProperty: IC50 (µM)
Report the figure in µM without appending any unit label.

Q: Entry `CSCC[C@H](NP(=O)(O)CO[C@H](C)Cn1cnc2c(N)ncnc21)C(=O)O` has what IC50?
A: 146

###

system: Human immunodeficiency virus 1; test: Substrate activity at HIV1 reverse transcriptase assessed as incorporation of compound into growing DNA strand at 500 to 1000 uM incubated for 1 hr using primer and template in presence of MgCl2 by gel based nucleotide incorporation assay; conditions: dose 500-1000 µM
Active and inactive are the calls of the source. No cut-off for these calls is given here.
In this exercise, the only acceptable responses are active, inactive

Field: example entries. Status: answers known.
# moleculeSmiles, assignedCategory
data = [
    ("N=C(N)NCCC[C@H](NP(=O)(O)OC[C@H]1O[C@@H](n2cnc3c(N)ncnc32)C[C@@H]1O)C(=O)O", "inactive"),
    ("Nc1ncnc2c1ncn2[C@H]1C[C@H](O)[C@@H](COP(=O)(O)N[C@@H](CC(=O)O)C(=O)O)O1", "active"),
]

Q: Called result for `Nc1ncnc2c1ncn2[C@H]1C[C@H](O)[C@@H](COP(=O)(O)N[C@@H](Cc2ccccc2)C(=O)O)O1`
A: inactive

Q: Called result for `CSCC[C@H](NP(=O)(O)OC[C@H]1O[C@@H](n2cnc3c(N)ncnc32)C[C@@H]1O)C(=O)O`
A: inactive

###

system: Human immunodeficiency virus 1; experiment: Substrate activity at HIV1 reverse transcriptase assessed as incorporation of compound into growing DNA strand at 500 to 1000 uM incubated for 1 hr using primer and template in presence of MnCl2 by gel based nucleotide incorporation assay; settings: dose 500-1000 µM
The source made the active and inactive calls. The calls are words filed in the database; no cut-off is given here.

# moleculeSmiles, Activity
measured = [
    ("Nc1ncnc2c1ncn2[C@H]1C[C@H](O)[C@@H](COP(=O)(O)N[C@@H](Cc2ccccc2)C(=O)O)O1", "inactive"),
    ("CSCC[C@H](NP(=O)(O)OC[C@H]1O[C@@H](n2cnc3c(N)ncnc32)C[C@@H]1O)C(=O)O", "inactive"),
    ("N=C(N)NCCC[C@H](NP(=O)(O)OC[C@H]1O[C@@H](n2cnc3c(N)ncnc32)C[C@@H]1O)C(=O)O", "inactive"),
]
